ASSAYED SYSTEM: T1, hArtemin-MMH (human)
T1 construct: also called hARTN.mmh; hARTN (A108-G220).mmh
T1 chain: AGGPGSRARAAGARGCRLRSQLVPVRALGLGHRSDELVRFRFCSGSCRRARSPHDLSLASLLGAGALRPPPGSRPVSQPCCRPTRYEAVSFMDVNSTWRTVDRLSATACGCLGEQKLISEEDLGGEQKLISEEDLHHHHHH
ASSAY REMARKS: BLI (Octet HTX), mAb captured on AHC tips, artemin at 15 nM, 25 C
MEASURE NAME: Artemin Binding Response (nm)
Express the result in nm but write the number alone.

# binder H4H33336P (antibody, human IgG4 S228P, kappa, V domains shown, Fully human antibody; also called Artemin mAb; anti-ARTN antibody) VH: QVQLVESGGGVVQPGRSLRLSCVASGFILSHYGMHWVRQAPGKGLEWVAVIWFDGTNKYYADSVKGRFTVSRDNSKNTLYMQMNSLRAEDTAVYYCARDPPPARRGNYNGMDVWGQGTTVTVSS VL: DIQMTQSPSSLSASVGDRVTITCRASQDIRNDLGWYQQKPGKAPKRLIFGASSLQSGVPLRFSGSGSGTEFTLTINNLQPEDFATFYCLQDNSYPWTFGQGTKVEIKR ; its Artemin Binding Response (nm) = 0.09
